System: Staphylococcus aureus ssp. Aureus
Experiment: In vitro antibacterial activity (MIC), S. aureus
Format: cell-based
Conditions: Staphylococcus aureus; Table 1 and main text; read-out: Sa MIC95
EXPERIMENTAL READOUT: MIC (µM)
Numbers only here, please. The scale is µM.

Query :: Which MIC is listed for N=C(N)NCc1ccc(NC(=O)c2cc(-c3cc(Cl)ccc3O)[nH]n2)cc1C(F)(F)F [Compound 10G] ?
Result :: 5

Query :: What do you have for NCc1ccc(NC(=O)c2cc(-c3cc(Cl)ccc3O)[nH]n2)cc1C(F)(F)F [Compound 10A] ?
Result :: 29

Query :: What do you have for "O=C(Nc1cccc(CNC2=NCCN2)c1)c1cc(-c2cc(Cl)ccc2O)[nH]n1" ?
Result :: 22.3

Query :: What do you have for CC(C)(C)OC(=O)N1CCN=C1NCc1ccc(NC(=O)c2cc(-c3cc(Cl)ccc3O)[nH]n2)cc1C(F)(F)F [Compound 10D] ?
Result :: 11.6

Query :: What do you have for O=C(Nc1ccc(CNC2=NCCN2)c(C(F)(F)F)c1)c1cc(-c2cc(Cl)ccc2O)[nH]n1 [Compound 10C] ?
Result :: 8

Query :: What do you have for "N=C(N)NCc1cccc(NC(=O)c2cc(-c3cc(Cl)ccc3O)[nH]n2)c1" ?
Result :: 22

Query :: What do you have for "NCc1cc(NC(=O)c2cc(-c3cc(Cl)ccc3O)[nH]n2)cc(C(F)(F)F)c1" ?
Result :: 12.1

Query :: What do you have for "CC(C)(C)OC(=O)N1CCN=C1NCc1cc(NC(=O)c2cc(-c3cc(Cl)ccc3O)[nH]n2)cc(C(F)(F)F)c1" ?
Result :: 12

Query :: What do you have for N=C(N)N1CCN(c2ccc(NC(=O)c3cc(-c4cc(Cl)ccc4O)[nH]n3)cc2C(F)(F)F)CC1 [Compound 12G] ?
Result :: 2.4

Query :: What do you have for N=C(N)N1CCN(c2cc(NC(=O)c3cc(-c4cc(Cl)ccc4O)[nH]n3)cc(C(F)(F)F)c2)CC1 [Compound 11G] ?
Result :: 3.2

Query :: What do you have for "N=C(N)NCc1cc(NC(=O)c2cc(-c3cc(Cl)ccc3O)[nH]n2)cc(C(F)(F)F)c1" ?
Result :: 8

Query :: What do you have for O=C(Nc1cc(N2CCNCC2)cc(C(F)(F)F)c1)c1cc(-c2cc(Cl)ccc2O)[nH]n1 [Compound 11A] ?
Result :: 6

Query :: What do you have for O=C(Nc1cc(N2CCN(C3=NCCN3)CC2)cc(C(F)(F)F)c1)c1cc(-c2cc(Cl)ccc2O)[nH]n1 [Compound 11C] ?
Result :: 8

Query :: What do you have for N=C(N)N1CCN(c2cc(NC(=O)c3cc(-c4cc(Cl)ccc4O)[nH]n3)ccc2C(F)(F)F)CC1 [Compound 13G] ?
Result :: 2.5
